system: rat embryos explanted at GD 9.5; test: Postimplantation whole embryo culture (postWEC); parameters: species or system Sprague Dawley rats; details: GD 9.5-11.5, 48 h
Reported postWEC LOAEC values for the following compounds.
Field format: number, assumed µM, no unit text.

Consider the reported postWEC LOAEC for these compounds:
CCCSc1ccc2nc(NC(=O)OC)[nH]c2c1 [ABZ]    1.1
C[S+]([O-])c1nc2cc(Oc3cccc(Cl)c3Cl)c(Cl)cc2[nH]1 (stereo not shown) [TCBZSO, Triclabendazole sulfoxide]    666
CSc1nc2cc(Cl)c(Oc3cccc(Cl)c3Cl)cc2[nH]1 [TCBZ]    278

# evaluate next
# input Consider the compound CCC[S+]([O-])c1ccc2[nH]c(NC(=O)OC)nc2c1 (stereo not shown) [ABZSO, albendazole sulfoxide] and give its measured postWEC LOAEC.
# output 9

----------
tested on: zebrafish embryos; assay: Zebrafish embryo test (ZFET); type: in vivo, Danio rerio; conditions: 2-50 hpf
Reported ZFET LOAEC lethality values for the following compounds.
Field format: number, assumed µM, no unit text.

Consider the reported ZFET LOAEC lethality for these compounds:
C[S+]([O-])c1nc2cc(Oc3cccc(Cl)c3Cl)c(Cl)cc2[nH]1 (stereo not shown) [TCBZSO, Triclabendazole sulfoxide]    10
CCCSc1ccc2nc(NC(=O)OC)[nH]c2c1 [ABZ]    0.3
CSc1nc2cc(Cl)c(Oc3cccc(Cl)c3Cl)cc2[nH]1 [TCBZ]    5

# evaluate next
# input Consider the compound CCC[S+]([O-])c1ccc2[nH]c(NC(=O)OC)nc2c1 (stereo not shown) [ABZSO, albendazole sulfoxide] and give its measured ZFET LOAEC lethality.
# output 50
